Assay: fission yeast growth modulation, primary screen, strain 972, OD600, 24 h, no modulator (AID 1090);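 also: basal condition with compound alone and no growth modifier present; test concentration not given here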
Test Parameters: S. pombe 972 growth, higher = more signal, called active from +8 up or from −8 down
In this section we review reported z-score values for a set of compounds.
Measure: z-score

# Compound, Measure, Result Number
records = [
    ("O=C1OCCC=C[C@H]2OC34C=CCN(c5ccc(Cl)cc5)C(=O)[C@H]3N(CCCCCCO)C(=O)[C@@H]4C12 (some centres not stated)", "z-score", -1.1),
    ("O=C1C2C=CC(C(O)C=Cc3ccc([N+](=O)[O-])cc3)N(Nc3ccccc3)C2C(=O)N1c1ccccc1 (configuration not stated)", "z-score", 0.102),
    ("COCCOC(=O)N1C(=O)[C@@]2(c3cc(C#CC4=CCCCC4)ccc31)[C@H](C(=O)N1CCCCCCC1)[C@H]1C(=O)O[C@H](c3ccccc3)[C@H](c3ccccc3)N1[C@@H]2c1ccc(OCCO)cc1", "z-score", -0.534),
    ("C=C(COC)/C(=C/C[C@@H](OC(C)=O)c1ccc(CO)o1)c1cc(C(=O)OC)ccc1OC", "z-score", 0.369),
    ("CC(C)C(CO)N1C(=O)[C@@H]2[C@H]3C(=O)OCC=C[C@H]3OC23C=CCN(C(C)(C)C)C(=O)[C@@H]13 (some centres not stated)", "z-score", 0.0191),
    ("CC(C)[C@H]1NC(=O)[C@@]23C(=O)N[C@@H](Cc4ccccc4)C2[C@H](C)[C@@]2(C)O[C@H]2C3/C=C/CCC/C=C/CNC(=O)[C@H](Cc2ccccc2)NC1=O (some centres not stated)", "z-score", -1.4),
    ("COCCCNC(=O)[C@@]1(c2ccc([N+](=O)[O-])cc2)CC(=O)N(C(C)C)[C@@H]1c1ccc(CO)cc1", "z-score", -0.46),
]

* * *

Assay: small-molecule binders of probe aInhba, primary screen, biochemical, small-molecule microarray, 635/667 nm fluorescence (AID 1148);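 also: score merges 667nm spot fluorescence with signal-to-noise for antibody binding to printed compounds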
Test Parameters: higher = more signal

# Molecule, composite z-score
rows = [
    ("[N-]=[N+]=NCc1ccccc1[C@@H]1OC(c2ccc(OCCCO)cc2)=N[C@]1(Cc1ccccc1N=[N+]=[N-])C(=O)NCCN1CCOCC1", 0.102),
    ("CC(C)[Si]1(C(C)C)OCc2cc(-c3ccc(-c4ccc(Cl)c(Cl)c4)o3)nc(CCc3ccccc3)c21", -0.179),
    ("CCCC=C(CCC)[C@@H](NS(=O)(=O)c1cccc2cccnc12)c1ccc(-c2ccccc2)cc1", 0.475),
    ("COC(=O)C(CC#Cc1ccc2c(c1)[C@]1(C(=O)N2)[C@H](C(=O)Nc2nc3ccccc3s2)[C@H]2C(=O)O[C@H](c3ccccc3)[C@H](c3ccccc3)N2[C@@H]1c1ccc(OCCO)cc1)C(=O)OC", 0.146),
    ("C=C[C@@H](C)[C@H](O)c1ccc(OCCO)cc1", -0.263),
    ("CCOC(=O)C[C@H]1[C@H](OC(=O)c2ccc(-c3ccccc3)cc2)[C@@H](NC(=O)Cc2ccc(OC)cc2)c2cc(OCCCO)ccc2N1C(=O)Cc1ccc(OC)cc1", -0.128),
    ("O=C(CS)NCCCCCNC(=O)[C@@H]1C[C@@H]2C(=O)N[C@@H](Cc3ccccc3)C(=O)N2[C@@H]1c1cccc(OCCO)c1", -0.787),
    ("O=C(N1CCOCC1)[C@@]1(CCS(=O)(=O)c2ccccc2)N=C(c2ccc(OCCCO)cc2)O[C@H]1c1ccccc1", 0.3),
    ("COC(=O)C1N=C(c2ccc(OCCCO)cc2)N(c2ccccc2)O1 (centres undefined)", 0.308),
    ("COCCOC(=O)N1C(=O)[C@@]2(c3ccccc31)[C@H](c1ccccc1OCCO)N1[C@H](c3ccccc3)[C@H](c3ccccc3)OC(=O)[C@H]1[C@@H]2C(N)=O", 0.296),
    ("COC(=O)[C@@]1(Cc2ccc(OC)cc2)[C@H]2c3cc(C(=O)N4CCCC4)n(Cc4cc(C)n(C)n4)c3C[C@H]2CN1C(=O)c1ccccc1", 0.605),
    ("O=C(O)[C@@H]1C[C@@H]2C(=O)N3CCC[C@H]3C(=O)N2[C@@H]1c1cccc(OCCO)c1", 1.95),
    ("COc1cc2c(cc1OC)CN(C(=O)[C@@H]1[C@H]3C(=O)O[C@H](c4ccccc4)[C@H](c4ccccc4)N3[C@H](c3ccc(O)cc3)[C@@]13C(=O)Nc1ccc(C#CCCO)cc13)CC2", -0.0493),
    ("COc1cc(C(O)C2C=CC3C(=O)N(Cc4ccccc4)C(=O)C3N2n2cnnc2)cc(OC)c1OC (centres undefined)", 0.255),
]
